- target: D(3) dopamine receptor (Homo sapiens)
- Sequence (P35462 whole entry): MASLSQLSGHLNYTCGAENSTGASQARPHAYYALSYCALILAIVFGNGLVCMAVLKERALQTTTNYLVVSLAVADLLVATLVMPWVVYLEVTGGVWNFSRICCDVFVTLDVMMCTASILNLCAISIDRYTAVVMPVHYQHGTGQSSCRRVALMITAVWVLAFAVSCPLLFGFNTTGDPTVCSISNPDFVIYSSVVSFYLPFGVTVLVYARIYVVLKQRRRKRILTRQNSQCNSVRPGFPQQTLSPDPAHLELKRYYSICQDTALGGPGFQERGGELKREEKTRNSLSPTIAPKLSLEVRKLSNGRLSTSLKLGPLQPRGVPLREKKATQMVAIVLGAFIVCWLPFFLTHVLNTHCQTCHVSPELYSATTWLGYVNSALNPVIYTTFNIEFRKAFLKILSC
- assay.protocol: Antagonist activity at human dopamine D3 receptor expressed in CHO cells assessed as inhibition of quinperol-induced [35S]GTPgamma binding by scintillation proximity affinity assay
parameter.measured: pKi
In textbook form, pKi equals minus log to base ten of the concentration in mol/L.

Worked cases, answers included:
[
  {
    "compound": "Cc1ccc(N2CCN(CCN3CCCCCC3)C2=O)cc1",
    "pKi": 6.90
  },
  {
    "compound": "O=C1N(CCN2CCCCCC2)CCN1c1cccnc1",
    "pKi": 7.10
  },
  {
    "compound": "CN1CCCCC1CN1CCN(c2cccc(Cl)c2)C1=O (stereo not drawn)",
    "pKi": 8.40
  },
  {
    "compound": "O=C1N(CC2CCCCN2)CCN1c1cccc(Cl)c1 (stereo not drawn)",
    "pKi": 8.40
  },
  {
    "compound": "O=C1N(CCN2CCCCCC2)CCN1c1cc(Cl)cc(Cl)c1",
    "pKi": 8.80
  },
  {
    "compound": "O=C1N(CCN2CCCCCC2)CCN1c1cccc(C(F)(F)F)c1",
    "pKi": 9.00
  },
  {
    "compound": "O=C1N(CCN2CCCCCC2)CCN1c1ccc(F)cc1",
    "pKi": 6.60
  },
  {
    "compound": "O=C1N(CCN2CCCCCC2)CCN1c1ccc(F)c(Cl)c1",
    "pKi": 7.60
  },
  {
    "compound": "Cc1cccc(N2CCN(CCN3CCCCCC3)C2=O)c1",
    "pKi": 7.10
  },
  {
    "compound": "O=C1N(CCN2CCCCCC2)CCN1c1cccc(F)c1",
    "pKi": 7.80
  }
]

Then there is this compound:
[in] Can you share its pKi? I mean this compound: O=C1N(CC2CCCCN2)CCN1c1cccc(C(F)(F)F)c1 (stereo not drawn)
[out] 9.60
